Reference source for all entries: patent US9434711B2

Consider the following compounds and their measured IC50 readings.
# target.under.test: canine TRPM8 (Canis lupus familiaris)
# assay.notes: In Vitro Canine TRPM8 Functional Assay (Ca2+ fluorescence, icilin activation)
# Assay type: cell-based
# experimental.parameters: HEK293 cells stably expressing canine TRPM8; icilin activation; eight-point dose-response; read-out: IC50

* Cc1c(N(Cc2ccc(F)c(C(F)(F)F)c2)S(=O)(=O)CCCC(C)(C)O)sc2ccccc12 [Compound 759] | 18.3 nM
* O=S(=O)(Nc1ccc(S(=O)(=O)N(CCC2CC2)c2sc3ccccc3c2Br)cc1)C1CC1 [Compound 719] | 23 nM
* Cc1c(N(CCC2CC2)S(=O)(=O)c2ccc(C(=O)O)cc2F)sc2ccccc12 [Compound 589] | 4.2 nM
* CCS(=O)(=O)N(Cc1ccc(F)c(F)c1)c1sc2ccccc2c1C [Compound 41] | 5.4 nM
* NC(=O)c1ccc(S(=O)(=O)N(Cc2ccc(F)c(C(F)(F)F)c2)c2cc3ccccc3s2)cc1 [Compound 413] | 46 nM
* CC(=O)c1c(N(Cc2ccc(F)c(Cl)c2)S(=O)(=O)c2ccc(Br)cc2)sc2ccccc12 [Compound 733] | 13.4 nM
* CC(C)c1c(N(CCC2CC2)S(=O)(=O)c2ccc(C(=O)O)cc2)sc2ccccc12 [Compound 567] | 10.3 nM
* O=C(O)c1ccc(S(=O)(=O)N(CCCCC(F)(F)F)c2sc3ccccc3c2Br)c(F)c1 [Compound 707] | 3 nM
* CCCCN(c1cc2ccccc2s1)S(=O)(=O)c1ccc(N2CCOCC2)cc1 [Compound 446] | 96 nM
* Cc1c(N(CCCC(F)(F)F)S(=O)(=O)c2ccc(Oc3ccncc3)cc2)sc2ccccc12 [Compound 372] | 27 nM

Let me know recorded IC50 for COc1cccc(CN(c2sc3ccccc3c2Br)S(=O)(=O)c2ccccc2)c1 [Compound 162] , thanks.
4.5 nM

Provide one value: measured IC50 of COc1ccc(CN(c2sc3ccccc3c2Br)S(=O)(=O)c2ccccc2)cc1 [Compound 164]
31.9 nM

Identify IC50 associated with the compound O=S(=O)(c1ccsc1)N(Cc1ccc(F)c(C(F)(F)F)c1)c1sc2ccccc2c1Br [Compound 186]
3.7 nM

Quote IC50 reported for CCCCN(C1=C(Br)c2ccccc2S1(=O)=O)S(=O)(=O)c1ccc(C(=O)O)cc1 [Compound 435] please.
33 nM

Entry Cc1c(N(Cc2ccc(F)c(C(F)(F)F)c2)S(=O)(=O)CCC(C)(C)O)sc2ccccc12 [Compound 725] needs its IC50 filled in; supply it.
7.8 nM

Provide measured IC50 value, entry: Cc1c(N(Cc2ccc(F)c(C(F)(F)F)c2)S(=O)(=O)c2cccc(C#N)c2)sc2ccccc12 [Compound 546]
68.3 nM

###

# target.under.test: canine TRPM8 (Canis lupus familiaris, UniProt Q1A7N1)
# Sequence (Q1A7N1 1-1104): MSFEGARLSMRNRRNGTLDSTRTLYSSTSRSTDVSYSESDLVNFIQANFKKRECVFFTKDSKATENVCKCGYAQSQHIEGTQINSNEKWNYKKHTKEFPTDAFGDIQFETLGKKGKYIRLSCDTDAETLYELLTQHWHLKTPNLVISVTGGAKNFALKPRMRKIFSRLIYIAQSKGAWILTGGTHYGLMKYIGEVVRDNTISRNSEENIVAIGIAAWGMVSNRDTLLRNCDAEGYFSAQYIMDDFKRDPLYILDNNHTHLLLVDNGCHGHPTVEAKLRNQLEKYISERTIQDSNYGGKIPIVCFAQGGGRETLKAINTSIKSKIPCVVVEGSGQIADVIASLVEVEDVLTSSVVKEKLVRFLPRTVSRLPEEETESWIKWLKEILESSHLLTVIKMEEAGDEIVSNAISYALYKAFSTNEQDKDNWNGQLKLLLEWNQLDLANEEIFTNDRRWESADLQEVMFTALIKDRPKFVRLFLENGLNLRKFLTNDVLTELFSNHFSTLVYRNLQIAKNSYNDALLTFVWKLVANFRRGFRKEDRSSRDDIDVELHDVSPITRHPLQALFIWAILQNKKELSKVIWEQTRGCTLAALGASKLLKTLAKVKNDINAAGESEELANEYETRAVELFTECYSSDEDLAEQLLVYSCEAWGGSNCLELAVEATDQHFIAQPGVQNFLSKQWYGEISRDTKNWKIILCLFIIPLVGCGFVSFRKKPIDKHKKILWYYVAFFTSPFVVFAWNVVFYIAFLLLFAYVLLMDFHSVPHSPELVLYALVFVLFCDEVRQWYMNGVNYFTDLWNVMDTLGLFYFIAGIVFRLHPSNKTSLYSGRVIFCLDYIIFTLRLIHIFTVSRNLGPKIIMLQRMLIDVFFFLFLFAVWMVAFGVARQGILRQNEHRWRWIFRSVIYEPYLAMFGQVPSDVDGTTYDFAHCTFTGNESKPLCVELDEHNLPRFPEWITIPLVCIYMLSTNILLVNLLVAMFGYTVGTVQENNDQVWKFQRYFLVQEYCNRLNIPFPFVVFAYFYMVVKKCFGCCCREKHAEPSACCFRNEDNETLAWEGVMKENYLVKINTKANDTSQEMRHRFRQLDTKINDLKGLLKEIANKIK
# assay.notes: In Vitro Canine TRPM8 Functional Assay (Ca2+ fluorescence, icilin activation)
# Type: cell-based
# experimental.parameters: compound at 0.2 μM; canine TRPM8, icilin activation; read-out: % Inh @ 0.2
attribute.measured: inhibition at 0.2 µM (%)
Give the value, in units of %, as a plain number.

Examples with their reported inhibition at 0.2 µM follow.
* O=C(O)c1ccc(S(=O)(=O)N(CC2CC2)c2sc3ccccc3c2Cl)cc1 | 99
* Cc1c(N(Cc2cc(Cl)ccc2Cl)S(=O)(=O)c2ccc(C(=O)O)cc2)sc2ccccc12 | 102
* O=C(O)c1ccc(S(=O)(=O)N(Cc2ccc(F)c(C(F)(F)F)c2)c2sc3ccccc3c2C2CC2)cc1 | 100

Query compound follows.
Give me measured inhibition at 0.2 µM, please, for this compound: COC(=O)CCS(=O)(=O)N(CCCC(F)(F)F)c1sc2ccccc2c1C
101
